Please provide measured Ki for the entries that follow.
Target: Recombinant human hepsin (4776-SE-010, R&D Systems), activated (human, UniProt P05981)
Assay: fluorogenic inhibition assay
Non-standard residues stand in square brackets, D forms with d. *: point of attachment. kbt = C-terminal ketobenzothiazole, c1ccc2sc(*)nc2c1; His(π-Bom) = N[C@@H](Cc1cncn1COCc1ccccc1)C(=O)O; Kbt = ketobenzothiazole, c1ccc2sc(*)nc2c1; cmk = not defined here
Answers are plain numbers, in nM.

Consider the reported Ki for these binders:
H-[His(π-Bom)]WLR-kbt (SMILES CC(C)C[C@H](NC(=O)[C@H](Cc1c[nH]c2ccccc12)NC(=O)[C@@H](N)Cc1cncn1COCc1ccccc1)C(=O)N[C@@H](CCCNC(=N)N)C(=O)c1nc2ccccc2s1) [H-His(Bom)-WLR-kbt]; 2.08
Ac-FLFR-Kbt (SMILES CC(=O)N[C@@H](Cc1ccccc1)C(=O)N[C@@H](CC(C)C)C(=O)N[C@@H](Cc1ccccc1)C(=O)N[C@@H](CCCNC(=N)N)C(=O)c1nc2ccccc2s1) [Ac-FLFR(SEQ ID NO: 19)-Kbt]; 1.44
H-Trp-Leu-Arg-{kbt-OH} [H-WLR-kbt-COOH]; 446

Below: the item to evaluate.
What value of measured Ki is listed for {Cy5.5}-KRLR-cmk (reading uncertain) [Cy5.5-KRLR(SEQ ID NO: 8)-cmk] ?
324
